We begin with a simple list: items and their reported pKi.
system.name: Collagenase 3 (Homo sapiens, UniProt P45452)
Conceptually, pKi converts a concentration in mol/L into minus its log10.

In the examples that follow, each entry is paired with its recorded pKi.
compound: Cc1cc(COc2ccc(S(=O)(=O)CC3(CC(=O)NO)CCN(CC(C)C)C3)cc2)c2ccccc2n1 (centres undefined)
pKi: 6.22
--
compound: Cc1cc(COc2ccc(S(=O)(=O)CC3NCCCC3C(=O)NO)cc2)c2ccccc2n1 (centres undefined)
pKi: 6.12
--
compound: Cc1cc(COc2ccc(S(=O)(=O)CC3(CC(=O)NO)CCCC3)cc2)c2ccccc2n1
pKi: 6.09
--
compound: Cc1cc(COc2ccc(S(=O)(=O)CC3(CC(=O)NO)CCCCC3)cc2)c2ccccc2n1
pKi: 5.92
--
compound: Cc1cc(COc2ccc(S(=O)(=O)CC3(CC(=O)NO)CCN(C)CC3)cc2)c2ccccc2n1
pKi: 5.58
--
compound: Cc1cc(COc2ccc(S(=O)(=O)CC3(CC(=O)NO)CCCN3C)cc2)c2ccccc2n1 (centres undefined)
pKi: 5.49
--
compound: Cc1cc(COc2ccc(S(=O)(=O)CC3(CC(=O)NO)CCN(C(C)C)C3)cc2)c2ccccc2n1 (centres undefined)
pKi: 6.19

# return recorded pKi for entry Cc1cc(COc2ccc(S(=O)(=O)CC3NCCC3C(=O)NO)cc2)c2ccccc2n1 (centres undefined)
6.02

* * *

Record type: pKi measurement. Applies to: UniProt:P45452
pKi: −log10 of the molar value.

In the examples that follow, each entry is paired with its recorded pKi.
compound: Cc1cc(COc2ccc(S(=O)(=O)CC3CCN(C(C)C)CC3C(=O)NO)cc2)c2ccccc2n1 (stereo not drawn)
pKi: < 5.30
//
compound: Cc1cc(COc2ccc(S(=O)(=O)CC3(CC(=O)NO)CCNC3)cc2)c2ccccc2n1 (stereo not drawn)
pKi: 5.49

Continue with the compound presented below.
Jot down pKi (UniProt:P45452) of Cc1cc(COc2ccc(S(=O)(=O)CC3(CC(=O)NO)CCN(C)C3)cc2)c2ccccc2n1 (stereo not drawn) .
< 5.30

* * *

Record type: pKi measurement. Applies to: UniProtKB P08253
pKi: −log10 of the molar value.

In the examples that follow, each entry is paired with its recorded pKi.
molecule: Cc1cc(COc2ccc(S(=O)(=O)CC3(CC(=O)NO)CCCC3)cc2)c2ccccc2n1
pKi: 5.81

molecule: Cc1cc(COc2ccc(S(=O)(=O)CC3CCNCC3C(=O)NO)cc2)c2ccccc2n1 (centres undefined)
pKi: < 5.48

molecule: Cc1cc(COc2ccc(S(=O)(=O)CC3(CC(=O)NO)CCNCC3)cc2)c2ccccc2n1
pKi: < 5.48

Continue with the molecule presented below.
# return recorded pKi for entry Cc1cc(COc2ccc(S(=O)(=O)CC3NCCC3C(=O)NO)cc2)c2ccccc2n1 (centres undefined)
< 5.48

* * *

system.name: Disintegrin and metalloproteinase domain-containing protein 17 (Sus scrofa, UniProt O77636)
Sequence (O77636 whole entry, the tested form may be a part): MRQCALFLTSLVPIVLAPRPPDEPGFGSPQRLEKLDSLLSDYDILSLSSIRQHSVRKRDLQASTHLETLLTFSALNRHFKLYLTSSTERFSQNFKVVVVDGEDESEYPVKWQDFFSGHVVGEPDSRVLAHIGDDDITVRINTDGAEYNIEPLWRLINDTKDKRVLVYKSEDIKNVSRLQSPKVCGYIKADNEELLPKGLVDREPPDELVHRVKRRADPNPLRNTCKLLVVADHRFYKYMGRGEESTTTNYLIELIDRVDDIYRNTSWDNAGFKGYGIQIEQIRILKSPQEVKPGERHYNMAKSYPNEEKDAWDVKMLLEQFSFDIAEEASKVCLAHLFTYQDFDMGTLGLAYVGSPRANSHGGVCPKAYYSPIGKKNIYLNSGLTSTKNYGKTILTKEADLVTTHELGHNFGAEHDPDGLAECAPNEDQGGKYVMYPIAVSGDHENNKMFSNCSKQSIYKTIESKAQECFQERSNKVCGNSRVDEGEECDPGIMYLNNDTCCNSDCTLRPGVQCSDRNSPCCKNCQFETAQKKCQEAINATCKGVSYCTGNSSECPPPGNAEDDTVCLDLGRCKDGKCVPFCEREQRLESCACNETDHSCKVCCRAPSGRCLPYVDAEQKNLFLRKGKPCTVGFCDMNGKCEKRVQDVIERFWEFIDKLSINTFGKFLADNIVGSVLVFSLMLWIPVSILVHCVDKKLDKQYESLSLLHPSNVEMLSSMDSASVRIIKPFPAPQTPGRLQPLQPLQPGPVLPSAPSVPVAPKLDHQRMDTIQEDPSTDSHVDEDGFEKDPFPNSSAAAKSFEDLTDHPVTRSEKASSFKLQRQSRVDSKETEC
value.kind: pIC50
Conceptually, pIC50 converts a concentration in mol/L into minus its log10.

In the examples that follow, each entry is paired with its recorded pIC50.
compound: C#CN1CCC(C(=O)NO)C(CS(=O)(=O)c2ccc(OCc3cc(C)nc4ccccc34)cc2)C1 (centres undefined)
pIC50: 9.00
//
compound: CC(=O)N1CCCC1(CC(=O)NO)CS(=O)(=O)c1ccc(OCc2cc(C)nc3ccccc23)cc1 (centres undefined)
pIC50: 6.18
//
compound: Cc1cc(COc2ccc(S(=O)(=O)CC3(CC(=O)NO)CCCCN3C)cc2)c2ccccc2n1 (centres undefined)
pIC50: 8.29

# return recorded pIC50 for entry Cc1cc(COc2ccc(S(=O)(=O)CC3(CC(=O)NO)CCCN3C)cc2)c2ccccc2n1 (centres undefined)
8.54

# return recorded pIC50 for entry Cc1cc(COc2ccc(S(=O)(=O)CC3(CC(=O)NO)CCCN(CC(C)C)C3)cc2)c2ccccc2n1 (centres undefined)
8.48

* * *

system.name: Disintegrin and metalloproteinase domain-containing protein 17 (Homo sapiens, UniProt P78536)
Sequence (P78536 whole entry, the tested form may be a part): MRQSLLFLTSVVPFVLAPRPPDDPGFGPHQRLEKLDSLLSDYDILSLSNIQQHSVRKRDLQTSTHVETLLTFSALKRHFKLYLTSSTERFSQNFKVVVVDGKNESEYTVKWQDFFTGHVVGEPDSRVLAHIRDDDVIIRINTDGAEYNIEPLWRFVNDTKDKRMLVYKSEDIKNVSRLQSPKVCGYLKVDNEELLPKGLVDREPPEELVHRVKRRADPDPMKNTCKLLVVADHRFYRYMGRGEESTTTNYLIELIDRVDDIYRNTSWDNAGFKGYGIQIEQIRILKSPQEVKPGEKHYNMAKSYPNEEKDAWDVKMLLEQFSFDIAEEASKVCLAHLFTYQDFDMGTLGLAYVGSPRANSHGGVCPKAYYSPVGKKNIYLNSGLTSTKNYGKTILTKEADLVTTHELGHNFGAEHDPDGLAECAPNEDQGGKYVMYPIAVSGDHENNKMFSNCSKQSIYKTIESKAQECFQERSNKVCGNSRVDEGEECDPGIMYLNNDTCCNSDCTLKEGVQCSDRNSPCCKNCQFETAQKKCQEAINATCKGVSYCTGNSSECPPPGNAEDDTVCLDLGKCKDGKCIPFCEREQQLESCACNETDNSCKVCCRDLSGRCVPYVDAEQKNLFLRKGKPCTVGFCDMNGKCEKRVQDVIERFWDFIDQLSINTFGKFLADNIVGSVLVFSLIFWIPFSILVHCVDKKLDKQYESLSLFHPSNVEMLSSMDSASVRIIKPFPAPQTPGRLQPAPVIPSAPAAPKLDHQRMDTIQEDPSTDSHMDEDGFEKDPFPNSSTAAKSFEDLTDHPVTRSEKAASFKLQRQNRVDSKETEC
procedure.summary: Effect on TNF-Alpha release in LPS-stimulated human whole blood assay
value.kind: pIC50
Conceptually, pIC50 converts a concentration in mol/L into minus its log10.

compound: C#CN1CCC(C(=O)NO)C(CS(=O)(=O)c2ccc(OCc3cc(C)nc4ccccc34)cc2)C1 (stereo not given)
value.kind: pIC50
quantitative.result: 6.74

compound: Cc1cc(COc2ccc(S(=O)(=O)CC3NCCCC3C(=O)NO)cc2)c2ccccc2n1 (stereo not given)
value.kind: pIC50
quantitative.result: 6.62

compound: Cc1cc(COc2ccc(S(=O)(=O)CC3CNCCC3C(=O)NO)cc2)c2ccccc2n1 (stereo not given)
value.kind: pIC50
quantitative.result: 6.60

Continue with the compound presented below.
# return recorded pIC50 for entry Cc1cc(COc2ccc(S(=O)(=O)CC3(CC(=O)NO)CCN(CC(C)C)C3)cc2)c2ccccc2n1 (stereo not given)
6.79

* * *

Record type: Ki measurement. Applies to: 72 kDa type IV collagenase (Homo sapiens)

In the examples that follow, each entry is paired with its recorded Ki.
compound: Cc1cc(COc2ccc(S(=O)(=O)CC3NCCCC3C(=O)NO)cc2)c2ccccc2n1 (stereo not drawn)
Ki: > 3.3 µM

compound: CCC(C)N1CCC(C(=O)NO)C(CS(=O)(=O)c2ccc(OCc3cc(C)nc4ccccc34)cc2)C1 (stereo not drawn)
Ki: > 3.3 µM

compound: Cc1cc(COc2ccc(S(=O)(=O)CC3(CC(=O)NO)CCC3)cc2)c2ccccc2n1
Ki: 2.57 µM

compound: Cc1cc(COc2ccc(S(=O)(=O)CC3(CC(=O)NO)CCCNC3)cc2)c2ccccc2n1 (stereo not drawn)
Ki: > 3.3 µM

compound: CC(=O)N1CCCC1(CC(=O)NO)CS(=O)(=O)c1ccc(OCc2cc(C)nc3ccccc23)cc1 (stereo not drawn)
Ki: > 3.3 µM

compound: Cc1cc(COc2ccc(S(=O)(=O)CC3(CC(=O)NO)CCCN(C)C3)cc2)c2ccccc2n1 (stereo not drawn)
Ki: > 3.3 µM

compound: Cc1cc(COc2ccc(S(=O)(=O)CC3(CC(=O)NO)CCCCN3C)cc2)c2ccccc2n1 (stereo not drawn)
Ki: > 3.3 µM

compound: Cc1cc(COc2ccc(S(=O)(=O)CC3CNCCC3C(=O)NO)cc2)c2ccccc2n1 (stereo not drawn)
Ki: > 3.3 µM

# return recorded Ki for entry Cc1cc(COc2ccc(S(=O)(=O)CC3(CC(=O)NO)COC3)cc2)c2ccccc2n1
> 3.3 µM

# return recorded Ki for entry Cc1cc(COc2ccc(S(=O)(=O)CC3C(C(=O)NO)CCCN3C)cc2)c2ccccc2n1 (stereo not drawn)
> 3.3 µM

* * *

system.name: Disintegrin and metalloproteinase domain-containing protein 17 (Sus scrofa, UniProt O77636)
We begin with a simple list: items and their reported pIC50.
Conceptually, pIC50 converts a concentration in mol/L into minus its log10.

In the examples that follow, each entry is paired with its recorded pIC50.
molecule: CCCCCN1CCC(CC(=O)NO)(CS(=O)(=O)c2ccc(OCc3cc(C)nc4ccccc34)cc2)C1 (stereo not drawn)
pIC50: 8.47

molecule: Cc1cc(COc2ccc(S(=O)(=O)CC3(CC(=O)NO)CCCNC3)cc2)c2ccccc2n1 (stereo not drawn)
pIC50: 8.55

molecule: Cc1cc(COc2ccc(S(=O)(=O)CC3(CC(=O)NO)CCN(CC(C)C)C3)cc2)c2ccccc2n1 (stereo not drawn)
pIC50: 8.59

molecule: Cc1cc(COc2ccc(S(=O)(=O)CC3CCN(C)CC3C(=O)NO)cc2)c2ccccc2n1 (stereo not drawn)
pIC50: 8.19

molecule: Cc1cc(COc2ccc(S(=O)(=O)CC3(CC(=O)NO)CCCO3)cc2)c2ccccc2n1 (stereo not drawn)
pIC50: 9.00

Continue with the molecule presented below.
# return recorded pIC50 for entry Cc1cc(COc2ccc(S(=O)(=O)CC3(CC(=O)NO)CCNC3)cc2)c2ccccc2n1 (stereo not drawn)
8.82

* * *

system.name: Disintegrin and metalloproteinase domain-containing protein 17 (Homo sapiens, UniProt P78536)
procedure.summary: Effect on TNF-Alpha release in LPS-stimulated human whole blood assay
value.kind: pIC50
Conceptually, pIC50 converts a concentration in mol/L into minus its log10.

In the examples that follow, each entry is paired with its recorded pIC50.
compound: Cc1cc(COc2ccc(S(=O)(=O)CC3(CC(=O)NO)CCCN3)cc2)c2ccccc2n1 (stereo unspecified)
pIC50: 6.39
--
compound: Cc1cc(COc2ccc(S(=O)(=O)CC3(CC(=O)NO)CCCN(C(C)C)C3)cc2)c2ccccc2n1 (stereo unspecified)
pIC50: 6.30
--
compound: Cc1cc(COc2ccc(S(=O)(=O)CC3CCNCC3C(=O)NO)cc2)c2ccccc2n1 (stereo unspecified)
pIC50: 6.60
--
compound: Cc1cc(COc2ccc(S(=O)(=O)CC3(CC(=O)NO)CCOCC3)cc2)c2ccccc2n1
pIC50: 6.59

# return recorded pIC50 for entry Cc1cc(COc2ccc(S(=O)(=O)CC3(CC(=O)NO)CCCO3)cc2)c2ccccc2n1 (stereo unspecified)
6.04

Data origin: ChEMBL document CHEMBL1137180
